target: MAGI2_3, Q86UL8; assay: holdup assay; parameters: key: below the threshold = too weak to quantify, mostly under pKd 3.1 to 4; details: plain residues with an end cap or a label only (N-terminal biotin on a linker: ado-ado)
Sequence (Q86UL8 600-682): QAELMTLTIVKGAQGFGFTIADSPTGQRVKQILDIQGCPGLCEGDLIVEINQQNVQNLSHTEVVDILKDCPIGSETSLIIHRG
experimental.readout: pKd
Give the figure by itself; no unit, no explanation.

pKd reported for this binder DPAESMESLV [PTPRG, P23470] : 4.54

Further cases:
Input NTLNRKTTPV [CACNG8, Q8WXS5] . Output pKd: 3.85

// field: pKd; key: SPDRDRESIV [SCN5A, Q14524] ; value = 4.02

Item: AQRARSPSDV [GPR12, P47775] | pKd: 3.7

Just so you know, measured pKd for KSRVAFFEEL [NF2, P35240] came out at 3.55
